From: paper PMC5071857

Target: EcPDF (Escherichia coli)
Construct: made in house
Sequence (P0A6K3 whole entry): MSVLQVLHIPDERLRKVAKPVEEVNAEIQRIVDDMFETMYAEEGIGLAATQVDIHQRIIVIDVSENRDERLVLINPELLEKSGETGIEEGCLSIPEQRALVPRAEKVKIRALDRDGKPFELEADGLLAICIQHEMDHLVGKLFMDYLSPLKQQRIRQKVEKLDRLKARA
Test: PDF inhibition, formate dehydrogenase-coupled spectrophotometric assay (EcPDF)
Type: biochemical
Conditions: 10 nM EcPDF; 2 mM Fo-Met-Ala-Ser; 10 min pre-incubation at 37 °C; read-out: IC50 EcPDF
measured.endpoint: pIC50
# pIC50 = -log10(concentration in molar units)

Query :: # input compound: CCCCC(CC(=O)NO)c1nc(-c2ccccc2)no1 (stereo not drawn) [AT006] ; wanted: its pIC50
Result :: 6.81

Query :: Try CCCC[C@H](CC(=O)NO)c1nc(-c2ccccc2)co1 [AT003] next.
Result :: 6.72

Query :: Try CCCCC(CC(=O)NO)c1nc(Cc2ccc3c(c2)OCO3)no1 (stereo not drawn) [AT016] next.
Result :: 8.00

Query :: Try CCCC[C@H](CC(=O)NO)c1nc(C(=O)N[C@H](C(=O)OC)C(C)C)co1 [AT009] next.
Result :: 6.48

Query :: Try CCCCC(CC(=O)NO)c1nc(C(N)=O)co1 (stereo not drawn) [AT007] next.
Result :: 6.13

Query :: Try CCCCC(CC(=O)NO)c1nc(C(=O)OCC)co1 (stereo not drawn) [AT004] next.
Result :: 6.96

Query :: Try CCCC[C@H](CC(=O)NO)c1nc(C(=O)N[C@H](C(N)=O)C(C)C)co1 [AT010] next.
Result :: 6.38

Query :: Try CCCCC(CC(=O)NO)c1nc(Cc2nc3ccccc3s2)no1 (stereo not drawn) [AT017] next.
Result :: 7.52

Query :: Try CCCCC(CC(=O)NO)c1nc(-c2ccc([N+](=O)[O-])cc2)no1 (stereo not drawn) [AT001] next.
Result :: 6.80
